These entries and their values trace back to ChEMBL document CHEMBL1132620.

Tested on: Rattus norvegicus
Assay: Mean number of shocks produced by the compound in rats at a dose of 1 mg/kg was determined by vogel's punished licking assay
Type: functional
Classify by measured Mean no. of shocks: y if it is equal to or exceeds 5, n if it is smaller.

Given the entry "CCCC(=O)O.C[C@@H]1CN(C(=O)N2Cc3c(C(=O)OC(C)(C)C)ncn3-c3ccc(Cl)cc32)C[C@H](C)N1" , answer whether its Mean no. of shocks meets or surpasses 5.
n

Tell me whether Mean no. of shocks is at least 5 here: "CC(C)N1[C@H](C)CN(C(=O)N2Cc3c(C(=O)OC(C)(C)C)ncn3-c3ccc(Cl)cc32)C[C@@H]1C"
y

Answer whether Mean no. of shocks of "C[C@@H]1CN(C(=O)N2Cc3c(C(=O)OC(C)(C)C)ncn3-c3ccc(Cl)cc32)C[C@H](C)N1C" is greater than or equal to 5.
y

Textbook exercise: given the entry "C[C@H]1CN(C(=O)N2Cc3c(C(=O)OC(C)(C)C)ncn3-c3ccc(Cl)cc32)C[C@H](C)N1" , state whether its Mean no. of shocks is greater than or equal to 5.
y
